Target: STAT6 (Homo sapiens (Human))
Experiment: STAT6 degrader assay (HiBiT, HeLa LgBiT clone 4.14)
Format: cell-based
Details: HeLa LgBiT clone 4.14, 4-24 h; read-out: STAT6 degradation Emax (%)
Provide the recorded Emax for the entries that follow.

Consider the following illustrative entries.
# molecule, reported
data = [
    ("Cn1c(CN2CCC(c3ccc(C(=O)N4CCC(N5CCN(Cc6ccc7c(c6)n(C)c(=O)n7C6CCC(=O)NC6=O)CC5)CC4)cc3)CC2)cc2c(-c3ccc4[nH]ncc4c3)ccnc21 (centres unmarked)", "20 to 30%"),
    ("Cn1c(CN2CCC(c3ccc(C(=O)N4CCC(CN5CCN(Cc6ccc7c(c6)oc(=O)n7C6CCC(=O)NC6=O)CC5)CC4)cc3)CC2)cc2c(-c3ccc(N)nc3)ccnc21 (centres unmarked)", "60 to 70%"),
    ("Cn1c(CN2CCC(c3ccc(C(=O)N4CCC(CN5CCN(Cc6ccc7c(c6)n(C6CCC(=O)NC6=O)c(=O)n7C)CC5)CC4)cc3)CC2)cc2c(-c3ccc(N)nc3)ccnc21 (centres unmarked)", "< 20%"),
]

# map each molecule to its Emax
1. COCc1nc2cc(-c3ccnc4c3cc(CN3CCC(c5ccc(C(=O)N6CCC(CN7CCN(Cc8ccc9c(c8)n(C8CCC(=O)NC8=O)c(=O)n9C)CC7)CC6)cc5)CC3)n4C)ccc2[nH]1 (centres unmarked)
2. C[C@@H](c1cc2c(-c3ccc(N)nc3)ccnc2n1C)N1CCC(c2ccc(C(=O)N3CCC(CN4CCN(Cc5ccc6c(c5)n(C5CC5)c(=O)n6C5CCC(=O)NC5=O)CC4)CC3)cc2)CC1 (some centres unmarked)

Key:
1: < 20%; 2: < 20%

###

System: eotaxin-3 release
Assay: Human whole blood eotaxin-3 assay (IL-4 stimulated)
Format: cell-based
Conditions: human whole blood, IL-4 0.4 nM, 48 hours; geometric mean; given for compounds with >80% Emax; read-out: Eotaxin-3 EC50
reported property: pEC50
Numbers only, as −log10 of the molar value.

Consider the following illustrative entries.
# compound, reported
rows = [
    ("CNc1ccc(-c2ccnc3c2cc([C@H](C)N2CCC(c4ccc(C(=O)N5CCC(CN6CCN(Cc7ccc8c(c7)n(C7CC7)c(=O)n8[C@H]7CCC(=O)NC7=O)C[C@@H]6C)CC5)cc4)CC2)n3C)cn1 (single isomer, unassigned) [Example 3h26]", 8.51),
    ("Cn1c(CN2CCC(c3ccc(C(=O)N4CCC(CN5CCN(Cc6ccc7c(c6)n(C)c(=O)n7C6CCC(=O)NC6=O)CC5)CC4)cc3)CC2)cc2c(-c3ccc(N)nc3)ccnc21 (centres unmarked) [Example 3e2]", 7.01),
    ("C[C@@H](c1cc2c(-c3ccc(N)nc3)ccnc2n1C)N1CCC(c2ccc(C(=O)N3CCC(CN4CCN(Cc5ccc6c(c5)n(C)c(=O)n6C5CCC(=O)NC5=O)C[C@H]4C(F)(F)F)CC3)cc2)CC1 (some centres unmarked) [Example 3e43]", 8.34),
    ("CN(C(=O)c1ccc(C2CCN(Cc3cc4c(-c5ccc(N)nc5)ccnc4n3C)CC2)cc1)c1ccc(C2CCN(Cc3ccc4c(c3)n(C)c(=O)n4C3CCC(=O)NC3=O)CC2(F)F)cc1 (centres unmarked) [Example 3p2]", 7.77),
    ("COCc1nc2cc(-c3ccnc4c3cc(CN3CCC(c5ccc(C(=O)N6CCC(CN7CCN(Cc8ccc9c(c8)n(C)c(=O)n9C8CCC(=O)NC8=O)CC7)CC6)cc5)CC3)n4C)ccc2[nH]1 (centres unmarked) [Example 3e3]", 7.84),
    ("C[C@@H](c1cc2c(-c3ccc(N)nc3)ccnc2n1C)N1CCC(c2ccc(C(=O)N3CCC(CN4[C@@H](C)CN(Cc5ccc6c(c5)n(C)c(=O)n6C5CCC(=O)NC5=O)C[C@@H]4C)CC3)cc2)CC1 (some centres unmarked) [Example 3e29]", 8.64),
    ("C[C@@H](c1cc2c(-c3ccc(N)nc3)ccnc2n1C)N1CCC(c2ccc(C(=O)N3CCC(CN4CCN(Cc5cc6c(cc5F)N(C5CCC(=O)NC5=O)C(=O)C65CC5)CC4)CC3)cc2)CC1 (some centres unmarked) [Example 3h9]", 7.36),
]

Proceed to the following item.
Exercise: Can you share its pEC50? I mean this compound: C[C@H]1CN(Cc2cc3c(cc2F)n([C@H]2CCC(=O)NC2=O)c(=O)n3C2CC2)CCN1CC1CCN(C(=O)c2ccc(C3CCN([C@@H](C)c4cc5c(-c6ccc(N)nc6)ccnc5n4C)CC3)cc2)CC1 (single isomer, unassigned) [Example 3e62]
Key: 8.31

###

Molecular target: UniProt P42226
Experiment: STAT6 degrader assay (HiBiT, HeLa LgBiT clone 4.14)
Assay type: cell-based
Settings: HeLa LgBiT clone 4.14, 4-24 h; geometric mean; given for compounds with >80% Emax; read-out: STAT6 degradation DC50
reported property: DC50 (nM)
Answers are plain numbers, in nM.

# molecule, experimental target, DC50 / nM
records = [
    ("Cn1c(CN2CCC(c3ccc(C(=O)N4CCC(CN5CCN(c6ccc7c(c6)n(C)c(=O)n7C6CCC(=O)NC6=O)CC5)CC4)cc3)CC2)cc2c(-c3ccc4[nH]ncc4c3)ccnc21 (centres unmarked)", "UniProt P42226", 1.8),
]

Exercise: Any idea what DC50 came out for C[C@H]1CN(Cc2cc3c(cc2F)n([C@@H]2CCC(=O)NC2=O)c(=O)n3C)CCN1CC1CCN(C(=O)c2ccc(C3CCN([C@@H](C)c4cc5c(-c6ccc(N)nc6)ccnc5n4C)CC3)cc2)CC1 (single isomer, unassigned) on UniProt P42226?
Key: 0.3

###

Biological target: STAT6 (Homo sapiens (Human), UniProt P42226)
Sequence (P42226 whole entry): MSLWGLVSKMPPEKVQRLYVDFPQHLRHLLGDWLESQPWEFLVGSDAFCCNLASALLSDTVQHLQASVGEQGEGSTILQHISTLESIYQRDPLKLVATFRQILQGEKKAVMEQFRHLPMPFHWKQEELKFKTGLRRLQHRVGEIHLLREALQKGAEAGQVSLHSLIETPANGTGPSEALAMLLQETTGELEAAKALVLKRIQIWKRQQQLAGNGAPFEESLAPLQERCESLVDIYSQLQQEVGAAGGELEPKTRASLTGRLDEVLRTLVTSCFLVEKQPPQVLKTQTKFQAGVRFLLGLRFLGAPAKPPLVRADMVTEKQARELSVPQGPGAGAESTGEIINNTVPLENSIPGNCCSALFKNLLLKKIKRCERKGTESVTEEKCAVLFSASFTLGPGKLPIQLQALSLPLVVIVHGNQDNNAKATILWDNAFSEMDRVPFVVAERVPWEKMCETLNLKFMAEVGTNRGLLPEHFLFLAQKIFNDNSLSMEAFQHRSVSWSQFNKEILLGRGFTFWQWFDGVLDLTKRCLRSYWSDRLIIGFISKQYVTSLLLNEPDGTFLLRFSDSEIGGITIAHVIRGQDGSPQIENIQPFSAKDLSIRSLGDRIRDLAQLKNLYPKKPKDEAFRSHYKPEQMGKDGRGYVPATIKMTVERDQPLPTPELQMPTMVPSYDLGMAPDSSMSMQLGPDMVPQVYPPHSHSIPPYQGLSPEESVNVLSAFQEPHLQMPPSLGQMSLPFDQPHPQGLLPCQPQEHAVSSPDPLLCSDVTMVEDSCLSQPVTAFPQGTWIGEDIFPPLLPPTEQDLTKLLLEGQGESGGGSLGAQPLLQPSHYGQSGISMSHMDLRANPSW
Experiment: STAT6 degrader assay (HiBiT, HeLa LgBiT clone 4.14)
Format: cell-based
Conditions: HeLa LgBiT clone 4.14, 4-24 h; read-out: STAT6 degradation Emax (%)
Provide the recorded Emax for the entries that follow.

# compound, Emax
records = [
    ("Cn1c(CN2CCC(c3ccc(C(=O)N4CCC(CN5CCC(c6cccc7c6n(C)c(=O)n7C6CCC(=O)NC6=O)CC5)CC4)cc3)CC2)cc2c(-c3ccc4[nH]ncc4c3)ccnc21 (centres unmarked)", "< 20%"),
]

# map each compound to its Emax
1. Cn1c(CN2CCC(c3ccc(C(=O)N4CCC(Cn5cc(-c6cccc7c6n(C)c(=O)n7C6CCC(=O)NC6=O)cn5)CC4)cc3)CC2)cc2c(-c3ccc4[nH]ncc4c3)ccnc21 (centres unmarked)
2. Cn1c(CN2CCC(c3ccc(C(=O)N4CCC(CN5CCN(Cc6cc7c(cc6F)n(C6CCC(=O)NC6=O)c(=O)n7C)CC5)CC4)cc3)CC2)cc2c(-c3ccc(N)nc3)ccnc21 (centres unmarked)
3. CNc1ccc(-c2ccnc3c2cc([C@H](C)N2CC=C(c4c(C)cc(C(=O)N5CCC(CN6CCN(c7ccc8c(c7)C7(CC7)C(=O)N8C7CCC(=O)NC7=O)C[C@@H]6C)CC5)cc4F)CC2)n3C)cn1 (some centres unmarked)
4. Cn1c(CN2CCC(c3ccc(C(=O)N4CCC(N5CCN(Cc6cccc7c6n(C)c(=O)n7C6CCC(=O)NC6=O)CC5)CC4)cc3)CC2)cc2c(-c3ccc4[nH]ncc4c3)ccnc21 (centres unmarked)

Key:
["20 to 30%", "70 to 80%", "40 to 50%", "< 20%"]

###

System: eotaxin-3 release
Assay: Human whole blood eotaxin-3 assay (IL-4 stimulated)
Assay type: cell-based
Settings: human whole blood, IL-4 0.4 nM, 48 hours; geometric mean; given for compounds with >80% Emax; read-out: Eotaxin-3 EC50
reported property: pEC50
Give bare numbers, as −log10 of the molar value.

# molecule, reported
measured = [
    ("C[C@H]1CN(Cc2cc3c(cc2F)n([C@@H]2CCC(=O)NC2=O)c(=O)n3C)CCN1CC1CCN(C(=O)c2ccc(C3CCN([C@@H](C)c4cc5c(-c6ccc(N)nc6)ccnc5n4C)CC3)cc2)CC1 (single isomer, unassigned)", 8.92),
    ("C[C@H]1CN(Cc2ccc3c(c2)oc(=O)n3C2CCC(=O)NC2=O)CCN1CC1CCN(C(=O)c2ccc(C3CCN([C@@H](C)c4cc5c(-c6ccc(N)nc6)ccnc5n4C)CC3)cc2)CC1 (stereo partly drawn)", 8.40),
    ("C[C@H]1CN(Cc2ccc3c(c2)n(C)c(=O)n3C2CCC(=O)NC2=O)CCN1CC1CCN(C(=O)c2ccc(C3CCN(Cc4cc5c(-c6ccc(N)nc6)ccnc5n4C)CC3)cc2)CC1 (stereo partly drawn)", 7.51),
    ("C[C@@H]1CN(Cc2ccc3c(c2)n(C)c(=O)n3C2CCC(=O)NC2=O)C[C@H](C)N1CC1CCN(C(=O)c2ccc(C3CCN([C@@H](C)c4cc5c(-c6ccc(N)nc6)ccnc5n4C)CC3)cc2)CC1 (stereo partly drawn)", 8.26),
    ("C[C@H]1CN(Cc2ccc3c(c2)n(C)c(=O)n3C2CCC(=O)NC2=O)CCN1CC1CCN(C(=O)c2ccc(C3CCN([C@@H](C)c4cc5c(-c6ccc(N)cn6)ccnc5n4C)CC3)cc2)CC1 (stereo partly drawn)", 8.59),
]

# map each molecule to its pEC50
1. C[C@H]1CN(Cc2ccc3c(c2)n(CC2CC2)c(=O)n3C2CCC(=O)NC2=O)CCN1CC1CCN(C(=O)c2ccc(C3CCN([C@@H](C)c4cc5c(-c6ccc(N)nc6)ccnc5n4C)CC3)cc2)CC1 (stereo partly drawn)
2. C[C@H]1CN(Cc2cc3c(cc2F)n([C@@H]2CCC(=O)NC2=O)c(=O)n3C2CC2)CCN1CC1CCN(C(=O)c2ccc(C3CCN([C@@H](C)c4cc5c(-c6ccc(N)nc6)ccnc5n4C)CC3)cc2)CC1 (single isomer, unassigned)

Key:
[8.44, 8.46]

# map each molecule to its pEC50
1. C[C@H]1CN(Cc2ccc3c(c2)n(C2CC2)c(=O)n3C2CCC(=O)NC2=O)CCN1CC1CCN(C(=O)c2ccc(C3CCN(Cc4cc5c(-c6ccc(N)nc6)ccnc5n4C)CC3)cc2)CC1 (stereo partly drawn)
2. C[C@H]1CN(Cc2ccc3c(c2)n(C)c(=O)n3C2CCC(=O)NC2=O)CCN1CC1CCN(C(=O)c2ccc(C3CCN([C@@H](C)c4cc5c(-c6ccc(NCCO)nc6)ccnc5n4C)CC3)cc2)CC1 (stereo partly drawn)

Key:
1: 7.42; 2: 8.42
